# Test system: DYRK1B
# Experimental Conditions: concentration: 1 μM, replicates: in singlicate; n = 1;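 also: KINOMEscan kinase panel screen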
Readout Kind: %Inh (%)
Give your result in % as a bare value.

Worked set:
• O=C(NOCC1CC1)c1ccc(F)c(F)c1Nc1ccc(I)cc1Cl = 0
• COC(=O)Nc1nc2cc(Oc3ccc(NC(=O)Nc4cc(F)ccc4F)cc3)ccc2[nH]1.Cl = 6

Q) Give its %Inh value. Item: O=c1cc(N2CCOCC2)nc2n(Cc3cccc4ccccc34)ccn12
A) 7

Q) I have this compound here, CC(=O)Nc1ccc(COc2ccc(Nc3ccnc4cc(-c5ccccn5)ccc34)cc2)cc1.Cl , and I need its recorded %Inh.
A) 33

Q) Need %Inh, item Cn1ccc2ncnc(Oc3ccc(NC(=O)Nc4ccncc4)c(Cl)c3)c21
A) 21

Q) Need %Inh, item Cc1ccc(NC(=O)c2ccnc(N3CCN(C)CC3)c2)cc1-c1ccc(C(=O)NCC2CC2)cc1
A) 0

Q) I'd like to know its %Inh. The compound in question is COc1ccc(COc2cc(-n3cnc4ccccc43)sc2C(N)=O)cc1
A) 12

Q) Dear colleague, I am looking for the recorded %Inh of the following compound: COc1ccc(Nc2nccc(N3CCC(NC(=O)Nc4cccc(C(C)=O)c4)C3)n2)cc1 (stereo not shown)
A) 0

Q) Given Cl.Oc1cccc(Nc2ccnc3cc(-c4ccncc4)ccc23)c1 , state its recorded %Inh.
A) 7

Q) Look at this compound and give its reported %Inh. COc1ccc(Nc2ncc(C#N)c(Nc3ccccc3C(N)=O)n2)cc1N1CCN(C)CC1.Cl
A) 87

Q) Sample CCc1ccnc(/C=C/c2n[nH]c3cc(Sc4ccccc4C(=O)NC)ccc23)c1 — what was its %Inh?
A) 4

Q) Suppose we examine the compound COc1ccc(S(=O)(=O)NC2CCN(c3cc(C)nc(Nc4cccc(C#N)c4)n3)CC2)cc1.O=C(O)C(F)(F)F ; what %Inh value has been reported?
A) 39

* * *

%Inh values, listed per item
# Tested on: ANKK1
# Experimental Conditions: concentration: 1 μM, replicates: in singlicate; n = 1
Could you give me the number in %? Just the number is fine.

Solved entries:
- Cl.Oc1cccc(Nc2ccnc3cc(-c4ccncc4)ccc23)c1 [GW494601]: 43
- O=C1Cc2cc(Nc3nc(NCc4cccc(S(=O)(=O)C(F)(F)F)c4)ncc3C(F)(F)F)ccc2N1: 0
- Cc1cccc(-c2nc(Nc3ccc4ncsc4c3)c3ccccc3n2)n1 [GW867588]: 0
- NCC(NC(=O)c1cc(-c2cn[nH]c2)c(-c2ccnc3[nH]ccc23)s1)c1ccccc1.O=C(O)C(F)(F)F.O=C(O)C(F)(F)F (centres unmarked) [GSK1325775]: 0
- Cl.Nc1ncnc2occ(-c3ccc(NC(=O)Nc4cc(C(F)(F)F)ccc4F)cc3)c12 [SB-707548]: 77

Query compound follows.
Q) Which %Inh value belongs to NS(=O)(=O)CCc1cccc(Nc2nccc(-c3c(-c4cccc(NC(=O)c5c(F)cccc5F)c4)nn4ccccc34)n2)c1 [GSK336735] ?
A) 83

* * *

The entries below are paired with their reported %Inh.
# System: CASK
# Experimental Conditions: concentration: 1 μM, replicates: in singlicate; n = 1
Value expressed in %; do not type the unit.

- c1ccc(-c2n[nH]cc2-c2ccnc3ccccc23)nc1 [GW271431]: 0
- COc1cc2ncn(-c3cc(OCc4sccc4Cl)c(C(N)=O)s3)c2cc1OC [GSK448459]: 12
- COc1cc2c(cc1OC[C@@H](O)CO)ncc1c3ccc(C#N)cc3[nH]c21: 0

Q) # %Inh lookup, item Cc1cccc(-c2nc(-c3ccc(S(C)(=O)=O)cc3)sc2-c2ccncc2)c1
A) 0

Q) Requested field: %Inh. Item: C[C@@H](Oc1cc(-n2cnc3ccc(NC(=O)NC(C)(C)C)cc32)sc1C(N)=O)c1ccccc1Cl [GSK346294]
A) 11

Q) Given the compound COc1ccc(Nc2nccc(N3CCC(NC(=O)Nc4cccc(C(C)=O)c4)C3)n2)cc1 (stereo not shown) [GSK1379731] , what is its reported %Inh?
A) 0

* * *

# Tested on: MAP3K1
# Experimental Conditions: concentration: 1 μM, replicates: in singlicate; n = 1
Listed below: %Inh values for each entry.
Write down the numeric answer in % and omit the unit.

* O=c1cc(N2CCOCC2)nc2n(Cc3cccc(F)c3)ccn12 | 17
* Cc1cn2c(=O)cc(N3CCOCC3)nc2n1Cc1cccc(Cl)c1Cl | 18
* CC(=O)Nc1ccc(COc2ccc(Nc3ccnc4cc(-c5ccccn5)ccc34)cc2)cc1.Cl | 11
* Cl.Cl.Cl.Fc1ccc(-c2ncn(C3CCNCC3)c2-c2ccnc(Nc3ccccc3)n2)cc1 | 0
* O=c1cc(N2CCOCC2)nc2n(Cc3cccc(Cl)c3Cl)c(C3CC3)nn12 | 14

Q) Return reported %Inh; argument: O=C1NC(=O)C(N2CCc3ccccc32)=C1c1cccc(Cl)c1
A) 26

Q) Which measured %Inh value corresponds to NS(=O)(=O)c1cccc(-c2ccc3nccc(-c4cccc(S(N)(=O)=O)c4)c3c2)c1 ?
A) 8

Q) I would be grateful if you could share the reported %Inh for CC(C)(C)n1cnc2c(N)ncnc21 .
A) 0

Q) State the recorded %Inh for this entry: COc1ccc(S(=O)(=O)NC2CCN(c3cc(C)nc(Nc4cccc(C#N)c4)n3)CC2)cc1.O=C(O)C(F)(F)F
A) 3

Q) I'd like to know its %Inh. The compound in question is CN1c2ccc(CNc3ccc(F)cc3)cc2-c2c(cnn2C)S1(=O)=O
A) 0

Q) Field request: %Inh | item: COC(=O)Nc1nc2cc(Oc3ccc(NC(=O)Nc4cc(F)ccc4F)cc3)ccc2[nH]1.Cl
A) 0

Q) Tell me the measured %Inh of Cc1cccc(-c2nc(Nc3ccc4ncsc4c3)c3ccccc3n2)n1 , please.
A) 0

Q) Item under review: COc1ccc(CNC(=O)NC2CCN(c3ccnc(Nc4ccc(OC)cc4)n3)C2)cc1 (stereo not drawn) . Reported %Inh?
A) 0

Q) Reported %Inh, compound Cc1cccc(Cn2ccn3c(=O)cc(N4CCOCC4)nc23)c1 : ____
A) 8

Q) What measured %Inh goes with COc1ccc(Nc2nccc(N3CCC(NC(=O)Nc4cc(C)ccc4C)C3)n2)cc1 (stereo not drawn) ?
A) 11

Q) Can you share its %Inh? I mean this compound: O=C1Cc2cc(Nc3nc(NCc4cccc(S(=O)(=O)C(F)(F)F)c4)ncc3C(F)(F)F)ccc2N1
A) 2

Q) Reported %Inh for CN(C1=C(c2ccccc2)C(=O)NC1=O)c1ccccc1 : what is it?
A) 9

Q) Consider the compound shown here: Cc1nnc(-c2ccc(C)c(-c3ccc(C(=O)Nc4ccc(NS(C)(=O)=O)cc4)cc3)c2)o1 What is its recorded %Inh?
A) 0

* * *

Reported values of %Inh for individual entries
# Test system: TSSK3
# Experimental Conditions: concentration: 1 μM, replicates: in singlicate; n = 1
Be sure to follow the number with its unit.

- O=C(Nc1n[nH]c2cc(-c3cccc(F)c3)ccc12)C1CC1 [SB-735464]: 9%
- Cc1nnc(-c2ccc3occ(-c4ccc(C(C)O)cc4)c3c2)o1 (centres unmarked): 1%
- COc1cc(Nc2nccc(N3CCC(NC(=O)c4cccc(NC(C)=O)c4)C3)n2)cc(OC)c1OC (centres unmarked) [GSK1379754]: 20%

Q) Report %Inh for O=C(NCCNc1ccnc(Nc2ccc(F)cc2)n1)Nc1ccccc1F [GSK1379880] please.
A) 12%

Q) Param item = COc1cc2ncn(-c3cc(OCc4sccc4Cl)c(C(N)=O)s3)c2cc1OC [GSK448459] ; retrieve measured %Inh.
A) 10%

* * *

# System: SgK110
# Experimental Conditions: concentration: 1 μM, replicates: in singlicate; n = 1
Readings of %Inh for the listed compounds
Dear colleague, please return just the value in %, with no unit written.

Sample records with %Inh:
* NS(=O)(=O)c1cccc(-c2ccc3ncc(N4CCOCC4)nc3c2)c1 | 1
* Cc1cccc(Cn2ccn3c(=O)cc(N4CCOCC4)nc23)c1 | 0
* CNc1ncnc2[nH]ncc12 | 0

# next compound below
Q) // lookup %Inh for CN(C1=C(c2ccccc2)C(=O)NC1=O)c1ccccc1
A) 0

* * *

# System: YES
# Construct: gene YES1
# Experimental Conditions: concentration: 1 μM, replicates: in singlicate; n = 1
%Inh: recorded values
# value in %; strip the unit string

Observe how each entry below is paired with its result.
- Cl.Oc1cccc(Nc2ccnc3cc(-c4ccncc4)ccc23)c1 [GW494601]: 94.6
- NS(=O)(=O)c1cccc(-c2ccc3ncc(N4CCOCC4)nc3c2)c1 [GSK1535721]: 7
- COc1ccc(COc2cc(-n3cnc4ccccc43)sc2C(N)=O)cc1 [GSK1024304]: 0

Consider the additional compound presented here.
Q) I have this compound here, Cc1nnc(-c2ccc3occ(-c4ccc(C(C)O)cc4)c3c2)o1 (stereo not shown) , and I need its recorded %Inh.
A) 3
